- measuredTarget: M1 muscarinic receptors (3H-PZ sites, frontal cortex) (Rattus norvegicus, UniProt P08482)
- Sequence (P08482 whole entry): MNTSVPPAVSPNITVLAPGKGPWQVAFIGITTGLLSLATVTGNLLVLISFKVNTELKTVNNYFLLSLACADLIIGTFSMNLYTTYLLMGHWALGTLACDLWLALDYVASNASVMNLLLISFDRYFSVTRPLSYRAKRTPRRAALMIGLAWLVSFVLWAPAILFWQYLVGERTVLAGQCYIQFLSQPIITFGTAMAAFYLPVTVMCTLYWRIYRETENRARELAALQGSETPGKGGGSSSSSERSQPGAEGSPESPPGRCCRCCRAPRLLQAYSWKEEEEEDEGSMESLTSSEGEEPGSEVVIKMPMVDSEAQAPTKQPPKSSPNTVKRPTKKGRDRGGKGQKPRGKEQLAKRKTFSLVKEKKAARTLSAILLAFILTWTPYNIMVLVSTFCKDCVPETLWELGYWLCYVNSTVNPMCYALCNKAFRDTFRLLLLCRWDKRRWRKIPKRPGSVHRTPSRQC
- methodDescription: Displacement of 3H-PZ from rat frontal cortex homogenate
- Type: binding
I'd appreciate it if you could supply a':b', Ki(3H-PZ):Ki(3H-QNB) values for the items below.
Please state the value as a number alone, without comment.

[in] Reported a':b', Ki(3H-PZ):Ki(3H-QNB), compound C[C@H]1O[C@]2(CS1)CN1CCC2CC1 (relative stereo) [compound 4] : ____
[out] 0.13

[in] What about CC1OCC2(CN3CCC2CC3)S1 (stereo not shown) [compound 11] ?
[out] 0.09

[in] What about C[C@H]1O[C@@]2(CN3CCC2CC3)CS1(=O)=O (relative stereo) [compound 14] ?
[out] 0.18

[in] What about CC1OCC2(CN3CCC2CC3)S1 (stereo not shown) [compound 8] ?
[out] 0.11

Data provenance is patent US4876260A.
